The measured values listed here are drawn from patent US10077293B2.

tested on: E. coli ML35p; experiment: Ultrasensitive radial diffusion assay (URDA), antimicrobial activity; type: cell-based; conditions: Gram −
Ends that are not written are not given here.
Reported Minimal effective concentration values for a set of substances
Value expressed in µg/mL; do not type the unit.

Guide cases for Minimal effective concentration, answers given:
{"substance": "LLWKLLKKLLK-NH2 [SEQ ID NO 3, LLWKLLKKLLK]", "readout.units": "µg/mL", "Minimal effective concentration": 13.8}
{"substance": "KLLLKLLKKLL-NH2 [SEQ ID NO 8, KLLLKLLKKLL]", "readout.units": "µg/mL", "Minimal effective concentration": 9.8}
{"substance": "KLLKKLLKLL-NH2 [SEQ ID NO 9, KLLKKLLKLL]", "readout.units": "µg/mL", "Minimal effective concentration": 17.2}
{"substance": "LLWKLLKLLLK-NH2 [SEQ ID NO 2, LLWKLLKLLLK]", "readout.units": "µg/mL", "Minimal effective concentration": 12.1}

Look at this substance and give its reported Minimal effective concentration. FFHHIFRGIVHVGKTIHRLVTG-NH2 [Piscidin 1, reference compound]
2.3

Look at this substance and give its reported Minimal effective concentration. AAWKLLKALAKA-NH2 [SEQ ID NO 1, AAWKLLKALAKA]
23.0

Look at this substance and give its reported Minimal effective concentration. KLLLKLLKLL-NH2 [SEQ ID NO 7, KLLLKLLKLL]
8.8

Look at this substance and give its reported Minimal effective concentration. LKWLLKLLKLK-NH2 [SEQ ID NO 11, LKWLLKLLKLK]
15.0

---

system: E. coli D31; experiment: Ultrasensitive radial diffusion assay (URDA), antimicrobial activity; assay type: cell-based; settings: E. coli D31, Gram −
Ends that are not written are not given here.
Classify: Criterion met when Minimal effective concentration is strictly less than 20 µg/mL; Criterion not met when Minimal effective concentration is not.

Example results:
{"substance": "LKWLLKLLKLK-NH2 [SEQ ID NO 11, LKWLLKLLKLK]", "discrete.label": "Criterion met"}
{"substance": "KLLKKLLKLL-NH2 [SEQ ID NO 9, KLLKKLLKLL]", "discrete.label": "Criterion met"}
{"substance": "KLLLKLLKKLL-NH2 [SEQ ID NO 8, KLLLKLLKKLL]", "discrete.label": "Criterion met"}
{"substance": "LLWKLLKKLLK-NH2 [SEQ ID NO 3, LLWKLLKKLLK]", "discrete.label": "Criterion met"}
{"substance": "KLALKLLKLL-NH2 [SEQ ID NO 5, KLALKLLKLL]", "discrete.label": "Criterion met"}
{"substance": "LLWKLLKLLLK-NH2 [SEQ ID NO 2, LLWKLLKLLLK]", "discrete.label": "Criterion met"}
{"substance": "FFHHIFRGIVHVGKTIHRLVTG-NH2 [Piscidin 1, reference compound]", "discrete.label": "Criterion met"}
{"substance": "KLLLKLLKLL-NH2 [SEQ ID NO 7, KLLLKLLKLL]", "discrete.label": "Criterion met"}
{"substance": "KAAAKAAKAA-NH2 (C-terminus assumed) [SEQ ID NO 6, KAAAKAAKAA]", "discrete.label": "Criterion not met"}

Input AAWKLLKALAKA-NH2 [SEQ ID NO 1, AAWKLLKALAKA] ; condition: Minimal effective concentration strictly below 20 µg/mL. Does it hold?
Criterion not met
